system: BT-549 breast; test: NCI-60 one-dose screen, 48 h (100 = growth as untreated, 0 = no growth, -100 = all killed); settings: 10 µM unless noted
Compounds without any hit were thinned out: in the full panel of roughly 83,000, 20% have a hit.
growth vs 40%: at or above is Satisfied, below is Not satisfied.

Illustrative cases are given below, each with its answer.
Cc1c(O)c(=O)ccn1-c1nc2ccccc2s1 :: Satisfied
COc1cc(N=Nc2cc(S(=O)(=O)O)cc3cc(S(=O)(=O)O)cc(O)c23)c(C)cc1N=Nc1c(S(=O)(=O)O)cc2cc(Nc3ccccc3)ccc2c1O :: Satisfied
O=C(Nc1nc(-c2ccccc2)cs1)c1cc(-c2ccc(Br)cc2)nc2ccccc12 :: Satisfied
COC1=CC=CC2(OC)C3(O)CCCc4cccc(c43)N3C(=O)COC132 (stereo not given) :: Satisfied

Read the next record carefully.
Lookup: Is the recorded value of growth equal to or greater than 40% for this compound? `C=C1C(=O)O[C@H]2[C@H]1CC/C(COC(=O)c1c[nH]c3ccccc13)=C\CC[C@@]1(C)O[C@@H]21`
Found: Not satisfied

###

Tested on: 786-0 renal
Assay: NCI-60 one-dose screen, 48 h (100 = growth as untreated, 0 = no growth, -100 = all killed)
Conditions: 10 µM unless noted
Experimental: Cells are grown in 96 well plates and exposed to the test compound for 48 hours. Compounds are tested at a single concentration, which is 10^-5 M for most compounds. The reported endpoint is percent growth (GI% or GIPRCNT), where numbers from 0 - 100% represent growth inhibition, and numbers from -100% - 0 represent cell death. For example, a value of 40 represents 60% growth inhibition. A value of 0 means no net growth occurred over the course of the experiment. […]
About 83,000 compounds went through this panel and 20% of them were active in at least one assay; those are over-represented in the sample as a whole.
reported metric: growth (%)
Report the value in % with no unit label.

Examples with answers:
COC(=O)/C=C1\SC(=Nc2ccc(F)cc2)N(CCc2c[nH]c3ccccc23)C1=O :: 104
CC(=O)Nc1nc2c(c(N)c1C#N)C(c1cccc(Cl)c1)C1=C(CCCC1=O)N2c1sc2c(c1C#N)CCCC2 (centres undefined) :: 57.6
c1ccc(Sc2ncccn2)nc1 :: 103
CC1CCCN(CCCCCOc2ccc3oc4ccc(Cl)cc4c(=O)c3c2)C1 (centres undefined) :: 68.2
CC1(c2ccccc2Cl)NC(=O)NC1=O (centres undefined) :: 99.2

Lookup: Look up growth: `COc1cc(/C=C/C(=O)/C=C/c2cc3ccc(Cl)cc3n(Cc3ccccc3)c2=O)ccc1O`
Found: -55.7

Lookup: Look up growth: Nc1ccc(C2=NN(C(=O)c3cc(-c4ccc(Cl)cc4)nc4ccccc34)C(c3ccccc3)C2)cc1 (centres undefined)
Found: 21.7

Lookup: Look up growth: `NS(=O)(=O)c1ccc(-n2nc(-c3ccccc3)ccc2=O)cc1`
Found: 93.8

###

test system: SW-620 colon; assay: NCI-60 one-dose screen, 48 h (100 = growth as untreated, 0 = no growth, -100 = all killed); conditions: 10 µM unless noted
This is part of a sample that, as a whole, favours compounds with a hit. Of some 83,000 tested, about 20% had one in any assay.
The threshold is 30%. Values of growth beneath it are tagged label 1; values meeting or exceeding it are tagged label 0.

Illustrative cases are given below, each with its answer.
NC(=O)c1ccc2nc3c(n2c1)C(=O)C(=O)c1ccccc1-3 :: label 1
Nc1c(C(=O)Nc2ccccn2)sc2nc3c(cc12)CCCCCC3 :: label 1
CCCCN(CCCC)CC(CN(CC)CC)OC(=O)Nc1ccccc1 (stereo not given) :: label 0
C=C1C(=O)O[C@H]2[C@H]1CC/C(COC(=O)c1cccnc1N)=C\CC[C@@]1(C)O[C@@H]21 :: label 1
O=C1c2ccccc2C(=O)c2c1oc1c2c(=O)[nH]c2ccc(Cl)cc21 :: label 1

Lookup: Given the entry `COc1cc(-c2nn(-c3ccc(Br)cc3)cc2CO)ccc1O` , would its reported growth be below 30%?
Found: label 0

Lookup: Given the entry CCCCc1nc(Cl)c(C2CC(c3ccc(Cl)cc3)=NN2c2cc(Cl)cc(Cl)c2)[nH]1 (stereo not given) , would its reported growth be below 30%?
Found: label 1

Lookup: Given the entry COc1ccc(-c2nc(C#N)c(NCC(c3ccc(Cl)cc3)N3CCCCC3)o2)cc1 (stereo not given) , would its reported growth be below 30%?
Found: label 0

Lookup: Given the entry `Cc1c(Cl)cccc1NC(=O)c1sc2nc3c(cc2c1N)COCC3` , would its reported growth be below 30%?
Found: label 1

###

test system: EKVX NSCLC; test: NCI-60 one-dose screen, 48 h (100 = growth as untreated, 0 = no growth, -100 = all killed); details: 10 µM unless noted
Compounds without any hit were thinned out: in the full panel of roughly 83,000, 20% have a hit.
growth vs 40%: at or above is Satisfied, below is Not satisfied.

Illustrative cases are given below, each with its answer.
CCOC(=O)c1c(C)nc2c(c1N)/C(=C/c1ccccn1)C(=O)N2Cc1ccccc1 :: Not satisfied
N#Cc1c(-c2ccc(F)cc2)nc(N=Nc2c(O)[nH]c3ccc(Cl)cc23)nc1N1CCOCC1 :: Satisfied
CCN1CCN(Cc2ccc(NC(=O)c3cccc(C#Cc4cccc5[nH]nc(N)c45)c3)cc2C(F)(F)F)CC1 :: Not satisfied

Lookup: Is the recorded value of growth equal to or greater than 40% for this compound? CCOC(=O)C1=C(C)n2nc(CC#N)c(C#N)c2NC1c1ccc(Cl)cc1 (centres undefined)
Found: Satisfied

Lookup: Is the recorded value of growth equal to or greater than 40% for this compound? `C=C1C(=O)O[C@H]2[C@H]1CC/C(COC(=O)c1cccnc1)=C\CC[C@@]1(C)O[C@@H]21`
Found: Satisfied

Lookup: Is the recorded value of growth equal to or greater than 40% for this compound? `COc1cc([C@H](C)c2ccc3ccccc3c2)cc(OC)c1OC`
Found: Not satisfied

Lookup: Is the recorded value of growth equal to or greater than 40% for this compound? `CCCCc1n(Cc2ccc3ccccc3n2)cc[n+]1Cc1ccc2ccccc2c1`
Found: Satisfied

Lookup: Is the recorded value of growth equal to or greater than 40% for this compound? `CN1CCN(S(=O)(=O)O[C@@H]2C(=O)N(c3cc4c5ccccc5ccc4c4ccccc34)[C@H]2c2ccc(F)cn2)CC1`
Found: Satisfied

###

Entries and their growth values follow.
system: HS 578T breast; experiment: NCI-60 one-dose screen, 48 h (100 = growth as untreated, 0 = no growth, -100 = all killed); conditions: 10 µM unless noted
About 83,000 compounds went through this panel and 20% of them were active in at least one assay; those are over-represented in the sample as a whole.
Report the value in % with no unit label.

Examples with answers:
COc1ccc(-c2nnc(N3CCN(C(=O)CN4CCN(c5ccc(OC)cc5)CC4)CC3)nc2-c2ccc(OC)cc2)cc1 :: 21
O=c1[nH]nc(-c2ccc(Br)cc2)c2sc(NC(=S)Nc3ccc(Cl)cc3)nc12 :: -1.82
CC(C)NS(=O)(=O)c1cccc(-c2ccc3c(=O)n(CCCN)c4c(c3c2)C(=O)c2ccccc2-4)c1 :: 105
CN(C)C(CNc1oc(-c2cccc3ccccc23)nc1C#N)c1ccco1 (centres undefined) :: 89.6
CSc1cccc(NC(=O)Nc2nc3c(C)cccc3s2)c1 :: 87.7
O=C(O)c1ccc(-n2cc(/C=N/Nc3ccc(Cl)cc3Cl)c(-c3ccccc3)n2)cc1 :: 107
CCOCCc1c(O)nc(SC)[nH]c1=O :: 92.9
CCCCc1n(Cc2ccc3ccccc3c2)c2ccccc2[n+]1Cc1ccc2ccccc2c1 :: -61.5

Lookup: Look up growth: `CC[C@]12C=CCN3CC[C@@]4(c5ccc(OC)cc5N(C)[C@H]4[C@@](O)(C(=O)OC)[C@@H]1OC(=O)CCC(=O)O[C@H]1CC[C@H]4[C@@H]5CC[C@H]6CC(=O)CC[C@]6(C)[C@H]5CC[C@]14C)[C@@H]32`
Found: 43.4

Lookup: Look up growth: `COc1ccc([C@H]2[C@@H](F)C(=O)N2c2cc(OC)c(OC)c(OC)c2)cc1F`
Found: 25.5

Lookup: Look up growth: `CCOC(=O)c1ccc(Nc2ncnc3ccc(NC(=O)c4ccccc4)cc23)cc1`
Found: -95

Lookup: Look up growth: Cc1nc2sc(C(=O)Nc3cccc(Cl)c3C)c(N)c2cc1C(C)O (centres undefined)
Found: 31.8

Lookup: Look up growth: `COc1ccc2[nH]c(-c3ccccc3)c(C=C(C#N)C#N)c2c1`
Found: 40.9

Lookup: Look up growth: `CC1=C(CCCOC(=O)NCCCl)C2=C(C)C3(CC3)[C@@](C)(O)C(=O)C2=C1`
Found: 99.8

Lookup: Look up growth: `COc1cc(C(=O)Nc2cc(O)c(C/C=C(\C)CCC=C(C)C)c(O)c2)cc2c1O[C@]1(C)CC[C@@H](O)C(C)(C)[C@H]1C2`
Found: -1.79

Lookup: Look up growth: CCOC(=O)C1=C(C)n2nc(CC#N)c(C#N)c2NC1c1ccc(Cl)cc1 (centres undefined)
Found: 106

Attribution: PubChem BioAssay (NCI)
